Reference source: patent US20070066636A1

assay.method.text: Solubility estimates in different solvents
Format: physicochemical
test.context: organic solvent or mixture, thermodynamic from solid; acetonitrile, ambient temperature, visual estimate
property.name: solubility

compound | result
N#Cc1ccccc1Cn1c(N2CCC[C@@H](N)C2)ncc(F)c1=O [Form A] | < 3000 µg/mL

---

assay.method.text: Solubility estimates in different solvents
Assay type: physicochemical
test.context: organic solvent or mixture, thermodynamic from solid; nitromethane, ambient temperature, visual estimate

compound | solubility
N#Cc1ccccc1Cn1c(N2CCC[C@@H](N)C2)ncc(F)c1=O [Form A] | < 3000 µg/mL

---

assay.method.text: Solubility estimates in different solvents
Format: physicochemical
test.context: thermodynamic from solid; water, ambient temperature, visual estimate

compound | solubility
N#Cc1ccccc1Cn1c(N2CCC[C@@H](N)C2)ncc(F)c1=O [Form A] | ≥ 41 mg/mL
